# Test system: pest eggs of Tetranychus cinnabarinus
# experimental details: Effect on hatching of pest eggs of Tetranychus cinnabarinus, leaf disc method
# Type: in vivo
# condition summary: 1 mg/L, 7 days after insecticide delivery, Replicate 1
Listing: Hatching rate (%) of selected compounds
assay readout: Hatching rate (%)

[
  {
    "compound": "CCC(COS(=O)OCCF)Oc1ccc(Cl)cc1Cl (centres unmarked) [Compound 19′]",
    "experimental system": "pest eggs of Tetranychus cinnabarinus",
    "assay readout": "Hatching rate (%)",
    "unit text": "%",
    "reported result": 1.89
  },
  {
    "compound": "CC(COc1ccc(Cl)cc1Cl)OS(=O)OCCF [1′-(R,R)]",
    "experimental system": "pest eggs of Tetranychus cinnabarinus",
    "assay readout": "Hatching rate (%)",
    "unit text": "%",
    "reported result": 25.37
  },
  {
    "compound": "CCC(COc1ccc(Cl)cc1Cl)OS(=O)OCCF [19-(R,R)]",
    "experimental system": "pest eggs of Tetranychus cinnabarinus",
    "assay readout": "Hatching rate (%)",
    "unit text": "%",
    "reported result": 14.89
  },
  {
    "compound": "CC[C@@H](COS(=O)OCCF)Oc1ccc(Cl)cc1Cl (stereo partly drawn) [19′-(S,S)]",
    "experimental system": "pest eggs of Tetranychus cinnabarinus",
    "assay readout": "Hatching rate (%)",
    "unit text": "%",
    "reported result": 0.00
  },
  {
    "compound": "CC[C@@H](COS(=O)OCCF)Oc1ccc(Cl)cc1Cl (stereo partly drawn) [19′-(S,R)]",
    "experimental system": "pest eggs of Tetranychus cinnabarinus",
    "assay readout": "Hatching rate (%)",
    "unit text": "%",
    "reported result": 0.00
  },
  {
    "compound": "C[C@@H](COS(=O)OCCF)Oc1ccc(Cl)cc1Cl (stereo partly drawn) [1-(S,S)]",
    "experimental system": "pest eggs of Tetranychus cinnabarinus",
    "assay readout": "Hatching rate (%)",
    "unit text": "%",
    "reported result": 0.00
  },
  {
    "compound": "C[C@H](COS(=O)OCCF)Oc1ccc(Cl)cc1Cl (stereo partly drawn) [1-(R,R)]",
    "experimental system": "pest eggs of Tetranychus cinnabarinus",
    "assay readout": "Hatching rate (%)",
    "unit text": "%",
    "reported result": 0.00
  },
  {
    "compound": "CC(C)(COS(=O)OCCF)Oc1ccc(Cl)cc1Cl (centres unmarked) [R-10′]",
    "experimental system": "pest eggs of Tetranychus cinnabarinus",
    "assay readout": "Hatching rate (%)",
    "unit text": "%",
    "reported result": 8.47
  },
  {
    "compound": "CC[C@@H](COc1ccc(Cl)cc1Cl)OS(=O)OCCF (stereo partly drawn) [19-(S,R)]",
    "experimental system": "pest eggs of Tetranychus cinnabarinus",
    "assay readout": "Hatching rate (%)",
    "unit text": "%",
    "reported result": 0.00
  },
  {
    "compound": "CC(COS(=O)OCCF)Oc1ccc(Cl)cc1Cl (centres unmarked)",
    "experimental system": "pest eggs of Tetranychus cinnabarinus",
    "assay readout": "Hatching rate (%)",
    "unit text": "%",
    "reported result": 0.00
  },
  {
    "compound": "CC(COc1ccc(Cl)cc1Cl)OS(=O)OCCF [1′-(S,S)]",
    "experimental system": "pest eggs of Tetranychus cinnabarinus",
    "assay readout": "Hatching rate (%)",
    "unit text": "%",
    "reported result": 16.36
  }
]

Source listed as patent US20260184675A1.
